- subject.of.test: Interstitial collagenase (Homo sapiens, UniProt P03956)
- Sequence (P03956 whole entry): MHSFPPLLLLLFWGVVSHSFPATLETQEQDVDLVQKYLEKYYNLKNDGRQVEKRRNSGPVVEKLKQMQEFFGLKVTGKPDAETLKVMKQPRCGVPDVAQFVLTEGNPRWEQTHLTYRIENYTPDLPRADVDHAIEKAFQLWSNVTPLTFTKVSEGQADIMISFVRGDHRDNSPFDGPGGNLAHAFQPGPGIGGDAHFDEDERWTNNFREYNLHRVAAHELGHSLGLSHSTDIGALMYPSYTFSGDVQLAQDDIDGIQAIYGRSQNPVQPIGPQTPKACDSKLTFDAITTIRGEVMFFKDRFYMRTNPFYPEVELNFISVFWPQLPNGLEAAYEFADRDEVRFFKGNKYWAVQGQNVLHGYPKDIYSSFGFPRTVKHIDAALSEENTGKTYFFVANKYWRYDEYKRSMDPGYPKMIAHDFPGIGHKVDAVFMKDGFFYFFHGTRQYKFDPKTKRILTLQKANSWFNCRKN
- protocol.summary: In vitro inhibition of human recombinant matrix metalloprotease-1 (MMP-1)
pIC50: −log10 of the molar value.
Cut-off 5 on pIC50, inclusive. At or above means fulfilled; below means not fulfilled.

See these solved cases before continuing.
smi | subject.of.test | class.assignment
Cc1ccc(-c2ccc(S(=O)(=O)N[C@H](C(=O)O)C(C)C)cc2)cc1 | Interstitial collagenase (Homo sapiens, UniProt P03956) | fulfilled
CC(C)[C@H](NS(=O)(=O)c1ccc(-c2ccc(Cl)cc2)cc1)C(=O)O | Interstitial collagenase (Homo sapiens, UniProt P03956) | fulfilled
CC(C)[C@@H](NS(=O)(=O)c1ccc(-c2ccc(C#N)cc2)cc1)C(=O)O | Interstitial collagenase (Homo sapiens, UniProt P03956) | not fulfilled

Could you tell me if the measured pIC50 of `CC(C)[C@H](NS(=O)(=O)c1ccc(-c2ccc(F)cc2)cc1)C(=O)O` reaches 5 or more? fulfilled

Hi team, for `CC(C)[C@H](NS(=O)(=O)c1ccc(-c2ccc(Br)cc2)cc1)C(=O)NO` , is the recorded pIC50 at or above 5? not fulfilled

Record `CC(C)[C@H](NS(=O)(=O)c1ccc(-c2ccc(C#N)cc2)cc1)C(=O)NO` ; criterion: pIC50 no lower than 5. Met? not fulfilled

hey, is pIC50 for this one >= 5? `O=C(CCc1ccccc1)NCCC[C@H](NS(=O)(=O)c1ccc(-c2ccc(Br)cc2)cc1)C(=O)O` not fulfilled

I'd appreciate it if you could say whether `O=C(CCc1ccccc1)NCCCC[C@H](NS(=O)(=O)c1ccc(-c2ccc(Br)cc2)cc1)C(=O)O` has pIC50 at least equal to 5. not fulfilled

---

- subject.of.test: Matrix metalloproteinase-9 (Homo sapiens)
- Sequence (P14780 whole entry): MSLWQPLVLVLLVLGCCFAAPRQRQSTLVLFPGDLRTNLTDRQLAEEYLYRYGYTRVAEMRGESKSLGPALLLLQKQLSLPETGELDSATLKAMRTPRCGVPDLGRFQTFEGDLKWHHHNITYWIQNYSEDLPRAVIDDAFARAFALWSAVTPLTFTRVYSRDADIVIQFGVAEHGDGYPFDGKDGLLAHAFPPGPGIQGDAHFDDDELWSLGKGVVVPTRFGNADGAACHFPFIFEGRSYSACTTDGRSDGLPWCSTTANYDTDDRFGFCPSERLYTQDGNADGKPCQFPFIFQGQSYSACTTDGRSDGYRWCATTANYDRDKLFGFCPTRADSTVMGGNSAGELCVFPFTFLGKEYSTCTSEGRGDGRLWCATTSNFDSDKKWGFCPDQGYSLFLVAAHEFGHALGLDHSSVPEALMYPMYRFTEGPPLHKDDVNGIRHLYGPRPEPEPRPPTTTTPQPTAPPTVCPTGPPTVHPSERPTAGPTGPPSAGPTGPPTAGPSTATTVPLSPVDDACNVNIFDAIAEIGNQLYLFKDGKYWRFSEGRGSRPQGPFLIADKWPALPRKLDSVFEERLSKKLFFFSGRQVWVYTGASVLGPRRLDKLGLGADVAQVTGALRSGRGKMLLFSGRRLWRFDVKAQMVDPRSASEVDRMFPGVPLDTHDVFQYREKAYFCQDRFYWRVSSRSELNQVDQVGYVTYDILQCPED
Threshold-based label: IC50 under 10 µM gives satisfied, IC50 not under 10 µM gives not satisfied.

The examples below pair each entry with its known result.
smi | class.assignment
CC(C)[C@H](NS(=O)(=O)c1ccc(-c2ccc(N)cc2)cc1)C(=O)O | not satisfied
O=C(CCc1ccccc1)NCCCC[C@H](NS(=O)(=O)c1ccc(-c2ccc(Br)cc2)cc1)C(=O)O | satisfied
CC(C)[C@H](NS(=O)(=O)c1ccc(-c2ccc(Br)cc2)cc1)C(=O)O | satisfied
CC(C)[C@H](NS(=O)(=O)c1ccc(-c2ccc(C=O)cc2)cc1)C(=O)O | not satisfied
COc1ccc(-c2ccc(S(=O)(=O)N[C@H](C(=O)O)C(C)C)cc2)cc1 | satisfied

IC50 under 10 µM? Item: `CC(C)[C@H](NS(=O)(=O)c1ccc(-c2ccc(C#N)cc2)cc1)C(=O)NO` not satisfied

Consider `CC(C)[C@H](NS(=O)(=O)c1ccc(-c2ccc(Br)cc2F)cc1)C(=O)O` . Does its IC50 lie strictly below 10 µM? satisfied

Dear reviewer, please state whether `CC(C)[C@H](NS(=O)(=O)c1ccc(-c2ccc(Br)cc2)cc1)C(=O)NO` has IC50 strictly beneath 10 µM. not satisfied

State whether 10 µM exceeds IC50 recorded for `CC(C)[C@H](NS(=O)(=O)c1ccc(-c2ccc(C#N)cc2)cc1)C(=O)O` . not satisfied

---

- protocol.summary: Cmax in rat plasma after single 5 mg/kg oral cassette gavage dose
- Format: ADME, organism-based
- Set-up: dose 5 mg/kg, route oral
quantity.name: Cmax (ng/mL)
Give the quantity in ng/mL, number only.

molecule | Cmax (ng/mL)
Cc1ccc(-c2ccc(S(=O)(=O)N[C@H](C(=O)O)C(C)C)cc2)cc1 | 3070
CC(C)[C@H](NS(=O)(=O)c1ccc(-c2ccc(F)cc2)cc1)C(=O)O | 18700
CC(C)[C@H](NS(=O)(=O)c1ccc(-c2ccc(Br)cc2F)cc1)C(=O)O | 28500
CC(C)[C@@H](NS(=O)(=O)c1ccc(-c2ccc(Br)cc2)cc1)C(=O)O | 25600

// moving on: another record for Cmax
GET /values?readout=Cmax&item= O=C(O)C(CCSCc1ccccc1)NS(=O)(=O)c1ccc(-c2ccc(Br)cc2)cc1 (stereo not given) 11600

Source of measurements: ChEMBL document CHEMBL1133013
